target_or_system: PLCG1(SH2dom.N-term.) (Homo sapiens)
Construct: SH2dom.N-term. denotes SH2 domain closest to N-terminus of protein; made in house; host or cells: HEK293 (transient transfection, unpurified extract)
procedure_details: biochemical
Type: binding
setup_conditions: read-out: percent of DMSO vehicle control
Non-standard residues stand in square brackets, D forms with d. Residues, ends and D or L forms follow the SMILES beside them. *: point of attachment. pY = N[C@@H](Cc1ccc(OP(=O)(O)O)cc1)C(=O)O; Caffeoyl = O=C(/C=C/c1ccc(O)c(O)c1)*
attribute_measured: remaining activity at 10 µM (%)

| compound | data_value |
| --- | --- |
| NC(=O)CC[C@H](NC(=O)[C@@H]1CC[C@@H]2CCN(C(=O)CCCCCC#Cc3cccc4c3CN(C3CCC(=O)NC3=O)C4=O)C[C@H](NC(=O)c3cc4cc(C(F)(F)P(=O)(O)O)ccc4[nH]3)C(=O)N21)C(=O)NC(c1ccccc1)c1ccccc1 (stereo partly shown) | 91.3 |
| CC(=O)N1CC[C@H]2CC[C@@H](C(=O)N[C@@H](CCC(N)=O)C(=O)NC(c3ccccc3)c3ccccc3)N2C(=O)[C@@H](NC(=O)c2cc3cc(C(F)(F)P(=O)(O)O)ccc3[nH]2)C1 | 130 |
| CC(=O)N[C@@H](Cc1ccc(CP(=O)(O)O)cc1)C(=O)NC1(C(=O)N[C@@H](CC(N)=O)C(=O)NCCCc2c(O)ccc3ccccc23)CCCCC1 | 109 |
| CC[C@H](C)[C@H](NC(=O)[C@H](CCC(=O)O)NC(=O)[C@H](CCC(=O)O)NC(=O)[C@H](Cc1ccc(OP(=O)(O)O)cc1)NC(=O)/C=C/c1ccc(O)c(O)c1)C(=O)N[C@@H](CCC(=O)O)C(=O)O [Caffeic acid-pYEEIE] (Caffeoyl-[pY]EEIE-OH) | 0.3 |

----------
target_or_system: VAV1 (Homo sapiens, UniProt P15498)
Construct: made in house; host or cells: HEK293 (transient transfection), unpurified extract
procedure_details: biochemical
Format: binding
setup_conditions: primary screen, 10 μM; read-out: percent of DMSO vehicle control
attribute_measured: remaining activity at 10 µM

| smiles_str | attribute_measured | data_value |
| --- | --- | --- |
| CC(C)(C)[C@H](NC(=O)/C=C/c1ccc(OP(=O)(O)O)cc1)C(=O)N1CCC[C@H]1C(=O)N(c1ccccc1)c1ccc(I)cc1 | remaining activity at 10 µM | 67.6% |
| O=C(CCl)Nc1cccc(CNC(=O)[C@H](Cc2ccc(OP(=O)(O)O)cc2)NC(=O)Cc2ccc(F)cc2)c1 | remaining activity at 10 µM | 109% |
| O=C(COc1ccc2cc(C(=O)Nc3ccccc3)ccc2c1)NCc1ccc(OP(=O)(O)O)c(OP(=O)(O)O)c1 | remaining activity at 10 µM | 106% |
| C/C(=C\C(=O)N[C@H](C(=O)N1CCC[C@H]1C(=O)N(c1ccccc1)c1ccc(I)cc1)C(C)(C)C)c1ccc(OP(=O)(O)O)cc1 | remaining activity at 10 µM | 55.3% |

----------
Catalogue of remaining activity at 10 µM readings, one per entry.
target_or_system: SH2D1A (Homo sapiens, UniProt O60880)
Construct: made in house; host or cells: HEK293 (transient transfection), unpurified extract
procedure_details: biochemical
Assay type: binding
setup_conditions: read-out: percent of DMSO vehicle control
Non-standard residues stand in square brackets, D forms with d. Residues, ends and D or L forms follow the SMILES beside them. *: point of attachment. pY = N[C@@H](Cc1ccc(OP(=O)(O)O)cc1)C(=O)O; Caffeoyl = O=C(/C=C/c1ccc(O)c(O)c1)*

| compound | remaining activity at 10 µM |
| --- | --- |
| CC(=O)N[C@@H](Cc1ccc(CP(=O)(O)O)cc1)C(=O)NC1(C(=O)N[C@@H](CC(N)=O)C(=O)NCCCc2c(O)ccc3ccccc23)CCCCC1 | 63.8% |
| CC(=O)N1CC[C@H]2CC[C@@H](C(=O)N[C@@H](CCC(N)=O)C(=O)NC(c3ccccc3)c3ccccc3)N2C(=O)[C@@H](NC(=O)c2cc3cc(C(F)(F)P(=O)(O)O)ccc3[nH]2)C1 | 87.6% |
| NC(=O)CC[C@H](NC(=O)[C@@H]1CC[C@@H]2CCN(C(=O)CCCCCC#Cc3cccc4c3CN(C3CCC(=O)NC3=O)C4=O)C[C@H](NC(=O)c3cc4cc(C(F)(F)P(=O)(O)O)ccc4[nH]3)C(=O)N21)C(=O)NC(c1ccccc1)c1ccccc1 (stereo partly shown) | 354% |
| CC[C@H](C)[C@H](NC(=O)[C@H](CCC(=O)O)NC(=O)[C@H](CCC(=O)O)NC(=O)[C@H](Cc1ccc(OP(=O)(O)O)cc1)NC(=O)/C=C/c1ccc(O)c(O)c1)C(=O)N[C@@H](CCC(=O)O)C(=O)O [Caffeic acid-pYEEIE] (Caffeoyl-[pY]EEIE-OH) | 79.8% |

----------
percent of DMSO vehicle control at 10 µM overview
target_or_system: GRB7 (Homo sapiens, UniProt Q14451)
Construct: the DNA-tagged SH2 domain concentrations used in this study were <0.1 nM; made in house; host or cells: HEK293 (transient transfection; unpurified extract)
procedure_details: biochemical
Type: binding
setup_conditions: read-out: percent of DMSO vehicle control
Non-standard residues stand in square brackets, D forms with d. Residues, ends and D or L forms follow the SMILES beside them. *: point of attachment. pY = N[C@@H](Cc1ccc(OP(=O)(O)O)cc1)C(=O)O; Caffeoyl = O=C(/C=C/c1ccc(O)c(O)c1)*

| compound | unit_name | percent of DMSO vehicle control at 10 µM |
| --- | --- | --- |
| CC(=O)N[C@@H](Cc1ccc(CP(=O)(O)O)cc1)C(=O)NC1(C(=O)N[C@@H](CC(N)=O)C(=O)NCCCc2c(O)ccc3ccccc23)CCCCC1 | % | 0 |
| CC(=O)N1CC[C@H]2CC[C@@H](C(=O)N[C@@H](CCC(N)=O)C(=O)NC(c3ccccc3)c3ccccc3)N2C(=O)[C@@H](NC(=O)c2cc3cc(C(F)(F)P(=O)(O)O)ccc3[nH]2)C1 | % | 135 |
| NC(=O)CC[C@H](NC(=O)[C@@H]1CC[C@@H]2CCN(C(=O)CCCCCC#Cc3cccc4c3CN(C3CCC(=O)NC3=O)C4=O)C[C@H](NC(=O)c3cc4cc(C(F)(F)P(=O)(O)O)ccc4[nH]3)C(=O)N21)C(=O)NC(c1ccccc1)c1ccccc1 (stereo partly shown) | % | 66.9 |
| CC[C@H](C)[C@H](NC(=O)[C@H](CCC(=O)O)NC(=O)[C@H](CCC(=O)O)NC(=O)[C@H](Cc1ccc(OP(=O)(O)O)cc1)NC(=O)/C=C/c1ccc(O)c(O)c1)C(=O)N[C@@H](CCC(=O)O)C(=O)O [Caffeic acid-pYEEIE] (Caffeoyl-[pY]EEIE-OH) | % | 0.2 |

----------
target_or_system: PIK3R2(SH2dom.C-term.) (Homo sapiens, UniProt O00459)
Construct: SH2dom.C-term. denotes SH2 domain closest to C-terminus of protein; made in house; host or cells: HEK293 (transient transfection, unpurified extract)
Sequence (O00459 622-716 limits assumed): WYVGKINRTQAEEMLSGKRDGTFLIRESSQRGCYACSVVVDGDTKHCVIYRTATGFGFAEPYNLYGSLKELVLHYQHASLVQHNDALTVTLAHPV
procedure_details: biochemical
Assay type: binding
setup_conditions: primary screen, 10 μM; read-out: percent of DMSO vehicle control
attribute_measured: remaining activity at 10 µM (%)

| compound | data_value |
| --- | --- |
| C/C(=C\C(=O)N[C@H](C(=O)N1CCC[C@H]1C(=O)N(c1ccccc1)c1ccc(I)cc1)C(C)(C)C)c1ccc(OP(=O)(O)O)cc1 [STAT6-IN-1] | 0.2 |
| CC(C)(C)[C@H](NC(=O)/C=C/c1ccc(OP(=O)(O)O)cc1)C(=O)N1CCC[C@H]1C(=O)N(c1ccccc1)c1ccc(I)cc1 [STAT6-IN-3] | 6.1 |
| O=C(COc1ccc2cc(C(=O)Nc3ccccc3)ccc2c1)NCc1ccc(OP(=O)(O)O)c(OP(=O)(O)O)c1 [Stafib-1] | 84.2 |
| O=C(CCl)Nc1cccc(CNC(=O)[C@H](Cc2ccc(OP(=O)(O)O)cc2)NC(=O)Cc2ccc(F)cc2)c1 [MN551] | 30.3 |

----------
The following molecules are listed with their measured percent of DMSO vehicle control at 10 µM values.
target_or_system: STAT3(E616del)-nonphosphorylated (Homo sapiens, UniProt P40763, DEL616-616)
Construct: made in house; host or cells: HEK293 (transient transfection), unpurified extract, dephosphorylated by endogenous phosphatases
procedure_details: biochemical
Type: binding
setup_conditions: read-out: percent of DMSO vehicle control
Non-standard residues stand in square brackets, D forms with d. Residues, ends and D or L forms follow the SMILES beside them. *: point of attachment. pY = N[C@@H](Cc1ccc(OP(=O)(O)O)cc1)C(=O)O; Caffeoyl = O=C(/C=C/c1ccc(O)c(O)c1)*

| molecule | percent of DMSO vehicle control at 10 µM |
| --- | --- |
| CC(=O)N[C@@H](Cc1ccc(CP(=O)(O)O)cc1)C(=O)NC1(C(=O)N[C@@H](CC(N)=O)C(=O)NCCCc2c(O)ccc3ccccc23)CCCCC1 | 71.8% |
| NC(=O)CC[C@H](NC(=O)[C@@H]1CC[C@@H]2CCN(C(=O)CCCCCC#Cc3cccc4c3CN(C3CCC(=O)NC3=O)C4=O)C[C@H](NC(=O)c3cc4cc(C(F)(F)P(=O)(O)O)ccc4[nH]3)C(=O)N21)C(=O)NC(c1ccccc1)c1ccccc1 (stereo partly shown) | 0% |
| CC[C@H](C)[C@H](NC(=O)[C@H](CCC(=O)O)NC(=O)[C@H](CCC(=O)O)NC(=O)[C@H](Cc1ccc(OP(=O)(O)O)cc1)NC(=O)/C=C/c1ccc(O)c(O)c1)C(=O)N[C@@H](CCC(=O)O)C(=O)O [Caffeic acid-pYEEIE] (Caffeoyl-[pY]EEIE-OH) | 85.5% |
| CC(=O)N1CC[C@H]2CC[C@@H](C(=O)N[C@@H](CCC(N)=O)C(=O)NC(c3ccccc3)c3ccccc3)N2C(=O)[C@@H](NC(=O)c2cc3cc(C(F)(F)P(=O)(O)O)ccc3[nH]2)C1 | 0.1% |
